target.or.test.system: T1, TROP-2-his (UniProt P09758 27-274)
T1 construct: also called antigen TROP-2-his; not shown: his tag
T1 sequence (looked up): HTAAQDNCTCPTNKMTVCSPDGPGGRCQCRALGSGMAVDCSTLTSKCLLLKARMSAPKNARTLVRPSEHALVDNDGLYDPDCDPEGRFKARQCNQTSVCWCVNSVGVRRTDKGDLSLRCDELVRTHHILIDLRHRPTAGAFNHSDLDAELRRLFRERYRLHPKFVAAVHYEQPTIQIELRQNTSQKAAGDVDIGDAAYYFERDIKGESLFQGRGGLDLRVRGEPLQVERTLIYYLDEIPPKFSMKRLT
test.description: SPR (Biacore), ADC captured on Protein A chip, TROP-2-his flowed over, 1:1 Langmuir fit
pKd: −log10 of the molar value.
value.kind: pKd

>>> numeric_result("TROP-2-ADC-19 (antibody, human IgG1, kappa, V domains shown, drug-linker compound 66 coupled to cysteines of the reduced interchain disulfide bonds; positions not given; drug-linker compound 66 (maleimide linker, exatecan derivative) coupled to cysteines of the reduced interchain disulfide bonds; positions not given; DAR 4.65 for the whole antibody) VH: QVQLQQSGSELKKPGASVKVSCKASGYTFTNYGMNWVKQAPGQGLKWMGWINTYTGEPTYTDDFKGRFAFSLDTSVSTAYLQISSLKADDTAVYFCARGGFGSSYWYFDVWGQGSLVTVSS VL: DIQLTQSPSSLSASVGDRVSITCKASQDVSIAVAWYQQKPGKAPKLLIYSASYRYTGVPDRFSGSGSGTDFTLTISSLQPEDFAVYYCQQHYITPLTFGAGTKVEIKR")
9.50
